Please respond with reported IC50 for every item in the list.
Biological target: EZH2 (Homo sapiens)
Assay: EZH2 assay: rPRC2 with biotinylated oligonucleosome substrates and 3H SAM, FlashPlate scintillation counting, IC50
Format: biochemical
Settings: rPRC2, biotinylated oligonucleosome substrates, 3H SAM; read-out: EZH2 IC50

What does the record list as IC50 for `CC1(C)CC(NC(=O)c2ccc(Oc3ncccn3)cc2)CC(C)(C)N1` ?
> 80 µM

Returns the measured IC50 for the input compound. Input: `COC(=O)c1cncc(-c2ccccc2Oc2ccc(C(=O)NC3CC(C)(C)NC(C)(C)C3)cc2Cl)c1`
< 5 µM

IC50 lookup needed for `Cc1cc(-c2cccc(OCc3ccc(C(=O)NC4CC(C)(C)NC(C)(C)C4)cc3)c2)cnc1F` , thanks.
20 to 80 µM

May I ask what IC50 has been recorded for `Cc1ccccc1Oc1ccc(C(=O)NC2CC(C)(C)NC(C)(C)C2)cc1Cl` ?
5 to 20 µM

Tell me the measured IC50 of `Cc1cc(C(=O)NC2CC(C)(C)NC(C)(C)C2)ccc1Oc1cccc(-c2cccnc2)c1C#N` , please.
< 5 µM

Look up IC50 for this compound: `CC1(C)CC(NC(=O)c2ccc(Oc3cccc(-c4cncc(C#N)c4)c3C#N)c(Cl)c2)CC(C)(C)N1`
< 5 µM

Fill in the blank: the reported IC50 of `CC1(C)CC(NC(=O)c2ccc(Oc3cccc(-c4cn[nH]c4)c3C#N)c(Cl)c2)CC(C)(C)N1` is ____.
< 5 µM

Given `CC1(C)CC(NC(=O)c2ccc(Oc3ccccc3OCc3ccncc3)cc2)CC(C)(C)N1` , state its recorded IC50.
5 to 20 µM

// query IC50 value for entry `CC1(C)CC(NC(=O)c2ccc(SCc3ccccc3)cc2)CC(C)(C)N1`
20 to 80 µM

Param item = `Cc1cc(C(=O)NC2CC(C)(C)NC(C)(C)C2)ccc1Oc1cccc(C2CC2)c1C#N` ; retrieve measured IC50.
< 5 µM

* * *

Target: EZH2 (Homo sapiens, UniProt Q15910)
Sequence (Q15910 whole entry): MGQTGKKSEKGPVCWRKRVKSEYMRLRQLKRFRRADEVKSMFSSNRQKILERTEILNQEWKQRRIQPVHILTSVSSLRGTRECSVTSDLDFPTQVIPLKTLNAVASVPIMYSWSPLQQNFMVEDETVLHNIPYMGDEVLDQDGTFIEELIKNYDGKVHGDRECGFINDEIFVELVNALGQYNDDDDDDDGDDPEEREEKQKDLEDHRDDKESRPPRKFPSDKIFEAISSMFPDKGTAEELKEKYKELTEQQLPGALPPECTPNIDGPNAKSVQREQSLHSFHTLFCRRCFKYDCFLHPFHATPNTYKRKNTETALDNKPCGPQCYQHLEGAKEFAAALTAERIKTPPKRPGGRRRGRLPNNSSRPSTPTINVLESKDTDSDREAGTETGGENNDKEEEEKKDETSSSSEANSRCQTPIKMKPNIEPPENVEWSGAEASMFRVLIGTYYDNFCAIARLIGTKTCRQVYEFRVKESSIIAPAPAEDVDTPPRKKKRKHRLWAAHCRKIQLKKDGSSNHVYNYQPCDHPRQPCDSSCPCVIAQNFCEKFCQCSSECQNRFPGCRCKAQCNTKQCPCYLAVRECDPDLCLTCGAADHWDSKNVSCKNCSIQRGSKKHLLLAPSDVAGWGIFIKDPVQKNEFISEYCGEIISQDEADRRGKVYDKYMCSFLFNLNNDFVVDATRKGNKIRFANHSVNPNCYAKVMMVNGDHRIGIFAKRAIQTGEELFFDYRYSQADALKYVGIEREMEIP
Sequence (O75530 whole entry partner): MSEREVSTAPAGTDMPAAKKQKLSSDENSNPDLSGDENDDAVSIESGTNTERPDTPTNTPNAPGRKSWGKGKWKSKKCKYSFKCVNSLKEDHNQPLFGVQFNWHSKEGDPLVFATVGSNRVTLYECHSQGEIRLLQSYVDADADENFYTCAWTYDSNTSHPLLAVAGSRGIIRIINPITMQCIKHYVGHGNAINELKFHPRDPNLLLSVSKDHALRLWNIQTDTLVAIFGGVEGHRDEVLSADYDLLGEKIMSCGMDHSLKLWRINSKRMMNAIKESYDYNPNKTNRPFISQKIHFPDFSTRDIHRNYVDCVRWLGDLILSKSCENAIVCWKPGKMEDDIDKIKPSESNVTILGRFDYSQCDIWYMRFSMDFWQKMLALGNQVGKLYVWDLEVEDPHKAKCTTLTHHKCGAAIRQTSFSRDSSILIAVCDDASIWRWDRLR
Sequence (Q15022 whole entry partner): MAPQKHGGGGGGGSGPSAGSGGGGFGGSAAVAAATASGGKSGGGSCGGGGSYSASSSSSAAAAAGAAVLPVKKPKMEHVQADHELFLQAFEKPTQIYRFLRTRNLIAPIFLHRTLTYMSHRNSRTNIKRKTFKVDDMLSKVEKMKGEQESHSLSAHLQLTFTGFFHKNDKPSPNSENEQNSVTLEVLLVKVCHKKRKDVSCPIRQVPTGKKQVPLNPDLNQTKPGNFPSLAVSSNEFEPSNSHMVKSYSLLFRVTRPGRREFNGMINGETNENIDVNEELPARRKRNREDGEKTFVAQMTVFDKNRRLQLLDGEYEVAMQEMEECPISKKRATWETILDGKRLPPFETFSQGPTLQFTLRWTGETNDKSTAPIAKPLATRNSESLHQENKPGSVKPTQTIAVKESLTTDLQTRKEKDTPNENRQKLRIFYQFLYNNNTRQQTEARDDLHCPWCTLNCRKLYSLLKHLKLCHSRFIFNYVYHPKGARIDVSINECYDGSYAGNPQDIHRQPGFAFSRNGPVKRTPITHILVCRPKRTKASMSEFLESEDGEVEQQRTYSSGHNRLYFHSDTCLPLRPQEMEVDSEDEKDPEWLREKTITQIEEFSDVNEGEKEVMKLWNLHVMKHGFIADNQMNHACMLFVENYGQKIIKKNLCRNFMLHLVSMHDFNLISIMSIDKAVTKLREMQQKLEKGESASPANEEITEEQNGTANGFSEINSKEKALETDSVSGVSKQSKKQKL
Experiment: EZH2 assay: rPRC2 with biotinylated oligonucleosome substrates and 3H SAM, FlashPlate scintillation counting, IC50
Format: biochemical
Settings: rPRC2, biotinylated oligonucleosome substrates, 3H SAM; read-out: EZH2 IC50
propertyMeasured: IC50

Form field: reported IC50 of `Cc1ccccc1OCc1ccc(C(=O)NC2CC(C)(C)NC(C)(C)C2)cc1`
> 80 µM

Sample `CC1(C)CC(NC(=O)c2ccc(Oc3ccccc3C#N)c(Cl)c2)CC(C)(C)N1CC(N)=O` — what was its IC50?
> 80 µM

I'd like to know its IC50. The molecule in question is `CC1(C)CC(NC(=O)c2ccc(COc3ccccn3)cc2)CC(C)(C)N1`
> 80 µM

Endpoint output: IC50 of CC1(C)CC(NC(=O)c2ccc(Oc3ccccc3C#N)c(Cl)c2)CC(=O)N1 (centres unmarked) . Value?
> 80 µM

Fill blank: measured IC50 of the molecule `COc1cc(-c2cccc(Oc3ccc(C(=O)NC4CC(C)(C)NC(C)(C)C4)cc3Cl)c2C#N)cc(C)n1` is ____.
< 5 µM

Given the entry CC1CC(NC(=O)c2ccc(Oc3ccccc3C#N)c(Cl)c2)CC(C)N1 (centres unmarked) , report its measured IC50.
20 to 80 µM

Any idea what IC50 was measured for `CN1CCN(C(=O)CCc2cccc(Oc3ccc(C(=O)NC4CC(C)(C)NC(C)(C)C4)cc3Cl)c2C#N)CC1` ?
< 5 µM

Item under review: `CNCc1cccc(Oc2ccc(C(=O)NC3CC(C)(C)NC(C)(C)C3)cn2)c1` . Reported IC50?
20 to 80 µM

* * *

Target: UniProtKB Q15910
Test: EZH2 assay: rPRC2 with biotinylated oligonucleosome substrates and 3H SAM, FlashPlate scintillation counting, IC50
Format: biochemical
Conditions: rPRC2, biotinylated oligonucleosome substrates, 3H SAM; read-out: EZH2 IC50
pIC50: −log10 of the molar value.
Exercise: state measured pIC50 for each of the compounds provided.

# get_value(readout='pIC50', item= `CCc1cccc(Oc2ccc(C(=O)NC3CC(C)(C)NC(C)(C)C3)cc2C)c1C#N` )
> 5.30

# lookup: pIC50 of O=C(N[C@H]1CCN(Cc2ccccc2)C1)c1ccc(Oc2ccccc2)cc1 (stereo in doubt) [Compound I-101]
< 4.10

Requested read-out: pIC50. Entry: `CC1(C)CC(NC(=O)c2ccc(Oc3ccc(Cl)cc3)cc2)CC(C)(C)N1`
< 4.10

For `CC1(C)CC(NC(=O)c2ccc(-n3ncc4c(Br)cccc43)c(Cl)c2)CC(C)(C)N1` , what is its reported pIC50?
4.70 to 5.30

Look up pIC50 for this compound: `CC1(C)CC(NC(=O)c2ccc(Oc3cccc(C(=O)O)c3)c(Cl)c2)CC(C)(C)N1`
< 4.10

Please report the recorded pIC50 for `CC1(C)CC(NC(=O)c2ccc(COc3ccccc3)cc2)CC(C)(C)N1` .
4.10 to 4.70

Quick one: pIC50 of `CC1(C)CC(NC(=O)c2ccc(Oc3cccc(NCC(N)=O)c3)c(Cl)c2)CC(C)(C)N1` ?
4.70 to 5.30

Which pIC50 is reported for this compound? `CC1(C)CC(NC(=O)c2ccc(Oc3ccccc3C#N)c(C#N)c2)CC(C)(C)N1`
> 5.30

* * *

Target: Y641N EZH2 (Homo sapiens, UniProt Q15910, Y641N)
Sequence (Q15910 whole entry Y641N): as the sequence (Q15910 whole entry) above, with Y641N counted along it
Sequence (O75530 whole entry partner): as the sequence (O75530 whole entry partner) above
Sequence (Q15022 whole entry partner): as the sequence (Q15022 whole entry partner) above
Test: Y641N EZH2 assay: performed as the EZH2 assay, using reconstituted H3K27Me2 oligonucleosomes as substrate
pIC50: −log10 of the molar value.
Provide the recorded pIC50 for the entries that follow.

Fill in: pIC50 of CN(C(=O)c1ccc(Oc2ccccc2C#N)c(Cl)c1)C1CC(C)(C)NC(C)(C)C1 [Compound I-344] is ___
< 4.10

// query pIC50 value for entry CC1(C)CC(NC(=O)c2ccc(COc3cccc(Br)c3)c(Br)c2)CC(C)(C)N1 [Compound I-216]
4.10 to 4.70

Which value of pIC50 has been reported for CC1(C)CC(NC(=O)c2ccc(Oc3cccc(Br)c3C#N)c(Cl)c2)CC(C)(C)N1 [Compound I-254] in the records?
> 5.30

Data request, read-out pIC50, for Cc1ccc(-c2cccc(Oc3ccc(C(=O)NC4CC(C)(C)NC(C)(C)C4)cc3Cl)c2C#N)cn1 [Compound I-362]
4.70 to 5.30

* * *

For each entry below, report its IC50 value.
Target: Y641N EZH2 (Homo sapiens, UniProt Q15910, Y641N)
Assay: Y641N EZH2 assay: performed as the EZH2 assay, using reconstituted H3K27Me2 oligonucleosomes as substrate

What value of measured IC50 is listed for `CC1(C)CC(NC(=O)c2ccc(Cn3cnc4ccccc43)cc2)CC(C)(C)N1` ?
> 80 µM

Consider the compound `CC1(C)CC(NC(=O)c2ccc(Oc3cccc(-c4ccc(N)nc4)c3C#N)c(Cl)c2)CC(C)(C)N1` and give its measured IC50.
< 5 µM

Record request: IC50 value, item `CC1(C)CC(OCc2ccc(Oc3cccc(-c4ccncn4)c3C#N)c(Cl)c2)CC(C)(C)N1`
20 to 80 µM

IC50 lookup needed for CC1OC(=O)c2c(Oc3ccc(C(=O)NC4CC(C)(C)NC(C)(C)C4)cc3Cl)cccc21 (stereo not shown) , thanks.
< 5 µM

For the compound shown here, `CC1(C)CC(NC(=O)c2ccc(Oc3cccc(N4CCOCC4=O)c3)c(Cl)c2)CC(C)(C)N1` , give the reported IC50.
> 80 µM

Could you tell me which IC50 is on file for `Cc1cc(C(=O)NC2CC(C)(C)NC(C)(C)C2)ccc1Oc1cccc(-c2cn[nH]c2)c1C#N` ?
< 5 µM

// query IC50 value for entry `N#Cc1ccccc1Oc1ccc(C(=O)NC2CCSCC2)cc1Cl`
> 80 µM

Fill in: IC50 of `CC1(C)CC(NC(=O)c2ccc(/C=C/c3ccccc3)cc2)CC(C)(C)N1` is ___
> 80 µM

Bench note: what IC50 did `CC1(C)CC(NC(=O)c2ccc(Oc3cccc(F)c3C#N)c(Cl)c2)CC(C)(C)N1` show?
< 5 µM

Item `CN1CCN(c2cccc(Oc3ccc(C(=O)NC4CC(C)(C)NC(C)(C)C4)cc3Cl)c2)CC1` has what recorded IC50?
> 80 µM

Which IC50 value is on record for `CC1(C)CC(N2CCc3cc(Oc4ccccc4C#N)c(Cl)cc3C2=O)CC(C)(C)N1` ?
> 80 µM

GET /values?readout=IC50&item= `Cc1cc(C(=O)NC2CC(C)(C)NC(C)(C)C2)ccc1Oc1cccc(Br)c1C#N`
< 5 µM

What value of measured IC50 is listed for `CNCc1cccc(Oc2ccc(C(=O)NC3CC(C)(C)NC(C)(C)C3)cc2Cl)c1C#N` ?
20 to 80 µM

Give its IC50 value. Item: `CC1(C)CC(NC(=O)c2ccc(C(=O)c3ccccc3)cc2)CC(C)(C)N1`
> 80 µM

Look up IC50: `Cc1cc(C(=O)NC2CC(C)(C)NC(C)(C)C2)ccc1Oc1cccc(-c2ccccc2)c1C#N`
20 to 80 µM

Please report the recorded IC50 for `CC1(C)CC(/C=C/c2ccc(Oc3cccc(-c4ccncn4)c3C#N)c(Cl)c2)CC(C)(C)N1` .
5 to 20 µM
